# ASSAY_TARGET: T1, anti-CD28 Fab (SEQ ID NOs: 202, 203)
# T1 construct: biotinylated and captured on neutravidin coated plates in the phage ELISA
# T1 sequence (VH, as listed by the source, chain 1 of 2): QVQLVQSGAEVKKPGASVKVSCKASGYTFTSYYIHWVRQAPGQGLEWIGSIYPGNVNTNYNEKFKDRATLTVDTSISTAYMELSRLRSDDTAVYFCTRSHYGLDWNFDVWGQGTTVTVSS
# T1 sequence (VL, as listed by the source, chain 2 of 2): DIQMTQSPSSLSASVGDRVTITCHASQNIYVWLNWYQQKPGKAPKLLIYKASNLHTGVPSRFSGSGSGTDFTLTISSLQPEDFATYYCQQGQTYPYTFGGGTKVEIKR
# EXPERIMENT_DESCRIPTION: phage binding ELISA on captured biotinylated Fab;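 further: clonal phage supernatants added to wells preincubated with CD28 antigen or blocking buffer only, bound phage detected by ELISA with horseradish-conjugated anti-M13 antibody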
Everything with Anti-CD28 Fab (SEQ ID NOs: 202, 203) signal lower than 2 is F; everything else, including exactly 2, is T.

                        binder  group
 0   YCAGHSPINIGKCL [Phage-10]      F
 1  TCSAGATYAWPFCL [Phage-913]      T
 2    ACDTYFAGMINECF [Phage-5]      F
 3  LCAAGATYPWPLCL [Phage-894]      T
 4  TCAAGAMWAWPVCL [Phage-911]      T
 5    FMCLPQNPHPLCFK [Phage-3]      F
 6  TCSAGAHYPWPICL [Phage-900]      F
 7  TCSAGAAYSWPACF [Phage-896]      F
 8  LCAAGAHYPWPQCL [Phage-937]      T
 9  WCKPGAPYKWPPCF [Phage-942]      T
10  TCSAGASNKLSLCL [Phage-931]      T
11   YCAGHMPQYEVKCL [Phage-21]      F
12  TCAAGAAWGWPLCF [Phage-893]      T
13  TCAAGATYPWPSCL [Phage-924]      T
14  TCSAGATWAWPLCF [Phage-902]      T
15  LCSAGAMYPWPTCL [Phage-922]      T
16  TCKAGATYLWPFCL [Phage-926]      T
17  MCAAGFHYPWPACL [Phage-927]      T
18    WECLKYTEANACTY [Phage-2]      F
19  LCAAGASWPWPVCL [Phage-888]      T
20  TCAAGATYLWPTCL [Phage-903]      F
21   YWYCSPSIVRCVLV [Phage-15]      F
22  LCAAGATYAWPLCL [Phage-945]      T
23    YWSCFQIPFTCFYF [Phage-1]      F
24  TCAAGAMYTWPLCF [Phage-943]      T
